Counter-ions that a name gives are not always drawn.

- MOLECULE: "Cc1ccc(C#N)c(S[C@H](CCN)c2cc(Cl)no2)n1.O=C(O)/C=C/C(=O)O [Example 19]"
  melting point: "186 to 187 °C"
- MOLECULE: "N#Cc1ccc(C(F)(F)F)nc1O[C@H](CCN)c1ccon1.O=C(O)/C=C/C(=O)O [Example 11]"
  melting point: "160 to 161 °C"
- MOLECULE: "COc1cc(O[C@H](CCN)c2ccon2)c(C#N)cn1.O=C(O)C(=O)O [Example 25]"
  melting point: "173 to 174 °C"
- MOLECULE: "Cc1ccc(C#N)c(OC(CCN)c2ccns2)n1.O=C(O)C(=O)O (stereo not drawn) [Example 22]"
  melting point: "175 to 177 °C"
- MOLECULE: "Cc1ccc(C#N)c(SC(CCN)c2nocc2C)n1.O=C(O)C(=O)O (stereo not drawn) [Example 26]"
  melting point: "132 to 134 °C"
- MOLECULE: "Cc1cc(SC(CCN)c2scnc2Cl)c(C#N)cn1.O=C(O)/C=C/C(=O)O (stereo not drawn) [Example 28]"
  melting point: "180 to 181 °C"
- MOLECULE: "Cc1ccc(C#N)c(S[C@H](CCN)c2ccno2)n1 [Example 6]"
  melting point: "165 to 167 °C"
- MOLECULE: "Cl.N#Cc1ccc(C(F)(F)F)nc1O[C@H](CCN)c1nccs1 [Example 12]"
  melting point: "151 to 153 °C"
- MOLECULE: "Cc1cc([C@@H](CCN)Oc2nc(C(F)(F)F)ccc2C#N)no1 [Example 24]"
  melting point: "163 to 165 °C"
- MOLECULE: "N#Cc1ccc(C(F)(F)F)nc1O[C@H](CCN)c1cc(Cl)no1.O=C(O)/C=C/C(=O)O [Example 18]"
  melting point: "151 to 152 °C"
- MOLECULE: "COc1cc(S[C@H](CCN)c2ccno2)c(C#N)cn1.O=C(O)/C=C/C(=O)O [Example 16]"
  melting point: "152 to 153 °C"
- MOLECULE: "Cc1ccc(C#N)c(SC(CCN)c2ccns2)n1.O=C(O)C(=O)O (stereo not drawn) [Example 21]"
  melting point: "103 to 104 °C"
- MOLECULE: "COc1cc(S[C@H](CCN)c2ccno2)c(Cl)cn1 (as salt: salt) [Example 15]"
  melting point: "142 to 143 °C"
- MOLECULE: "N#Cc1ccc(C(F)(F)F)nc1OC(CCCN)c1ccno1.O=C(O)/C=C/C(=O)O (stereo not drawn) [Example 42]"
  melting point: "155 to 157 °C"
- MOLECULE: "N#Cc1cnc(N)cc1S[C@H](CCN)c1ccno1.O=C(O)/C=C/C(=O)O [Example 14]"
  melting point: "160 to 163 °C"

This collection of values is drawn from patent US20040176422A1.
